Measured EC50, listed per entry.
Molecular target: CD73 (Homo sapiens (Human))
Assay: MDA-MB-231 Cell Based CD73 Activity Assay (DMEM)
Details: MDA-MB-231-GFP cells, DMEM medium with 10% human plasma, 200 uM AMP
Procedure: MDA-MB-231 Cell Based CD73 Activity Assay (DMEM) MDA-MB-231-GFP cells were seeded in 384-well plates (Greiner 781946) at a density of 3000 cells per well in 50 μL of DMEM medium with 10% HP (human plasma). Cells were plated into assay plate with compounds pre-spotted, for an overnight compound treatment. 50 uL of 400 uM AMP (final concentration will be 200 uM) was added using Bio-tek dispenser. Plates were incubated for 100 mins. […] The samples were analyzed using Rapid fire.
endpoint-label: EC50 (nM)

compound="O=c1[nH]cc(-c2cc(N3CCC(Cn4ccnn4)C3)c3nccn3n2)c(=O)[nH]1 (stereo not shown) [Example 592]" reading=774
compound="O=c1[nH]cc(-c2cc([C@H]3C[C@@H]3c3ccc(F)cc3)c3nc(C4CC4)cn3n2)c(=O)[nH]1 (racemic) [Example 86]" reading=16.6
compound="O=C(Nc1ccccc1F)O[C@H]1CN(c2cc(-c3c[nH]c(=O)[nH]c3=O)nn3ccnc23)CC1(F)F [Example 241]" reading=1.41
compound="O=c1[nH]cc(-c2cc(N3C[C@@H](Oc4ccc(C(F)(F)F)cn4)C(F)(F)C3)c3nccn3n2)c(=O)[nH]1 [Example 530]" reading=50.8
compound="O=C(NC1CN(c2cc(-c3c[nH]c(=O)[nH]c3=O)nn3ccnc23)CC1(F)F)c1ccc(C(F)(F)F)cn1 (stereo not shown) [Example 211]" reading=10.8
compound="O=c1[nH]cc(-c2cc([C@H]3C[C@@H]3c3ccc(OC(F)F)nc3)c3ncc(F)n3n2)c(=O)[nH]1 (racemic) [Example 121]" reading=19.7
compound="O=c1[nH]cc(-c2cc(N3CCC(c4ccc(C(F)(F)F)cc4)C3)c3nccn3n2)c(=O)[nH]1 (stereo not shown) [Example 248]" reading=36.3

----------
molecular target: CD73 (Homo sapiens (Human), UniProt P21589); format: biochemical; conditions: 1 mM NaH2PO4 in enzyme buffer, CD73 0.3 nM, AMP 15 uM
Sequence (P21589 27-574): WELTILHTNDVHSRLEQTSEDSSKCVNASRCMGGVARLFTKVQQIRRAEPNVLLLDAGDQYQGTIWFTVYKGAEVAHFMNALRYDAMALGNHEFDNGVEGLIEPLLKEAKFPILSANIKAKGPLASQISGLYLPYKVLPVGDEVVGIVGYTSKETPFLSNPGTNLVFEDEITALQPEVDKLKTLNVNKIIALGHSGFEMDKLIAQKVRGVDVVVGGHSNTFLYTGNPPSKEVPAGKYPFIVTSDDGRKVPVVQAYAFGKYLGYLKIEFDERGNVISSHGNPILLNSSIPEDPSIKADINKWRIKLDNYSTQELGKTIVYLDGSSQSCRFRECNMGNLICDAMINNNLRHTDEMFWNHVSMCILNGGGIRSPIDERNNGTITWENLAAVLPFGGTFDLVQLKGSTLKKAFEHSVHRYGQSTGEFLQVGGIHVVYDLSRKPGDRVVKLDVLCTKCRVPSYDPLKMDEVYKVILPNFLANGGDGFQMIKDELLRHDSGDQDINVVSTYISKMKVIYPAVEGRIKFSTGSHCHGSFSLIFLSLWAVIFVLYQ
Measured IC50, listed per entry.
endpoint-label: IC50

molecule="O=C(c1cccc([C@H]2C[C@@H]2c2cc(-c3c[nH]c(=O)[nH]c3=O)nn3ccnc23)c1)N1C[C@@H](F)[C@H](F)C1 (racemic)" endpoint_label=IC50 reading="1.8 nM"
molecule="O=c1[nH]cc(-c2cc([C@H]3C[C@@H]3c3ccc4cnccc4c3)c3nccn3n2)c(=O)[nH]1 (racemic)" endpoint_label=IC50 reading="0.95 nM"
molecule=O=c1[nH]cc(-c2cc(N3C[C@@H](Oc4cc(C(F)(F)F)ccn4)C(F)(F)C3)c3nccn3n2)c(=O)[nH]1 endpoint_label=IC50 reading="16.2 nM"

----------
target: CD73 (Homo sapiens (Human), UniProt P21589); test: MDA-MB-231 Cell Based CD73 Activity Assay (DMEM); details: MDA-MB-231-GFP cells, DMEM medium with 10% human plasma, 200 uM AMP
pEC50: −log10 of the molar value.
Measured pEC50, listed per entry.
endpoint-label: pEC50

compound=O=c1[nH]cc(-c2cc(N3C[C@@H](F)[C@@H](F)C3)n3ncnc3n2)c(=O)[nH]1 study_system="CD73 (Homo sapiens (Human), UniProt P21589)" reading=7.23
compound=O=c1[nH]cc(-c2cc([C@H]3C[C@@H]3c3ccc4nc(C(F)(F)F)sc4c3)c3nccn3n2)c(=O)[nH]1 study_system="CD73 (Homo sapiens (Human), UniProt P21589)" reading=8.58
compound=O=C(OCC(F)(F)F)N1CC2(C1)CN(c1cc(-c3c[nH]c(=O)[nH]c3=O)nn3ccnc13)CC2(F)F study_system="CD73 (Homo sapiens (Human), UniProt P21589)" reading=8.06
compound="O=c1[nH]cc(-c2cc([C@H]3C[C@@H]3c3ccc4nc(C(F)F)n(CC(F)(F)F)c4c3)c3nccn3n2)c(=O)[nH]1 (racemic)" study_system="CD73 (Homo sapiens (Human), UniProt P21589)" reading=9.59
compound=O=c1[nH]cc(-c2cc(N3C[C@H](Oc4ccc(OC(F)F)cn4)C(F)(F)C3)c3nccn3n2)c(=O)[nH]1 study_system="CD73 (Homo sapiens (Human), UniProt P21589)" reading=8.72
compound=O=c1[nH]cc(-c2cc([C@H]3C[C@@H]3c3ccc4cnn(CC(F)(F)F)c4c3F)c3nccn3n2)c(=O)[nH]1 study_system="CD73 (Homo sapiens (Human), UniProt P21589)" reading=9.92
compound=O=C(c1cccc(C2CN(c3cc(-c4c[nH]c(=O)[nH]c4=O)nn4ccnc34)C2)c1)N1CC(F)(F)C1 study_system="CD73 (Homo sapiens (Human), UniProt P21589)" reading=6.87

----------
Measured pEC50, listed per entry.
molecular target: CD73 (Homo sapiens (Human)); experiment: MDA-MB-231 Cell Based CD73 Activity Assay (DMEM); conditions: MDA-MB-231-GFP cells, DMEM medium with 10% human plasma, 200 uM AMP
pEC50: −log10 of the molar value.
endpoint-label: pEC50

compound="O=c1[nH]cc(-c2cc(N3CC4C(C3)C4(F)F)c3nccn3n2)c(=O)[nH]1 (stereo not shown)" endpoint_label=pEC50 reading=7.49
compound=N#Cc1ccc([C@H]2C[C@@H]2c2cc(-c3c[nH]c(=O)[nH]c3=O)nn3ccnc23)cc1C1CC1 endpoint_label=pEC50 reading=7.97
compound=O=c1[nH]cc(-c2cc(N3C[C@@H](Oc4ccccn4)C(F)(F)C3)c3nccn3n2)c(=O)[nH]1 endpoint_label=pEC50 reading=7.31
compound="O=c1[nH]cc(-c2cc(N3CC(OC(F)F)C(F)(F)C3)c3nccn3n2)c(=O)[nH]1 (stereo not shown)" endpoint_label=pEC50 reading=8.37
compound=O=c1[nH]cc(-c2cc(N3C[C@@H]4[C@H](C3)[C@H]4C(F)(F)F)c3nccn3n2)c(=O)[nH]1 endpoint_label=pEC50 reading=6.00
compound=CC1(C)CN(c2cc(-c3c[nH]c(=O)[nH]c3=O)nc3ncnn23)CC1(F)F endpoint_label=pEC50 reading=7.86
compound="O=C(NCC(F)(F)F)OC1CN(c2cc(-c3c[nH]c(=O)[nH]c3=O)nn3ccnc23)CC1(F)F (stereo not shown)" endpoint_label=pEC50 reading=9.15

----------
molecular target: CD73 (Homo sapiens (Human)); experiment: MDA-MB-231 Cell Based CD73 Activity Assay (DMEM); conditions: MDA-MB-231-GFP cells, DMEM medium with 10% human plasma, 200 uM AMP
Threshold-based label: EC50 under 20 nM gives y, EC50 not under 20 nM gives n.

compound=CC1(C)CN(c2cc(-c3c[nH]c(=O)[nH]c3=O)nn3c(Cl)cnc23)CC1(F)F study_system="CD73 (Homo sapiens (Human))" cat=n
compound="O=c1[nH]cc(-c2cc([C@H]3C[C@@H]3c3ccn4c(C(F)(F)F)ncc4c3)c3nccn3n2)c(=O)[nH]1 (racemic)" study_system="CD73 (Homo sapiens (Human))" cat=y
compound=O=c1[nH]cc(-c2cc(NCCc3cccc(C(F)(F)F)c3)c3nccn3n2)c(=O)[nH]1 study_system="CD73 (Homo sapiens (Human))" cat=n
compound=COc1cc([C@H]2C[C@@H]2c2cc(-c3c[nH]c(=O)[nH]c3=O)nn3ccnc23)ccc1C#N study_system="CD73 (Homo sapiens (Human))" cat=y
compound=O=c1[nH]cc(-c2cc(N3CC4CC(F)(C4)C3)c3nccn3n2)c(=O)[nH]1 study_system="CD73 (Homo sapiens (Human))" cat=n
compound=O=c1[nH]cc(-c2cc([C@H]3C[C@@H]3c3ccc4nc5n(c4c3)[C@@H](C(F)(F)F)CC5)c3nccn3n2)c(=O)[nH]1 study_system="CD73 (Homo sapiens (Human))" cat=y
compound="O=c1[nH]cc(-c2cc([C@H]3C[C@@H]3c3ccc(Cl)nc3)c3nccn3n2)c(=O)[nH]1 (racemic)" study_system="CD73 (Homo sapiens (Human))" cat=y
compound=O=c1[nH]cc(-c2cc(N3C[C@@H](F)[C@@H](F)C3)c3ncc(F)n3n2)c(=O)[nH]1 study_system="CD73 (Homo sapiens (Human))" cat=n
compound="O=c1[nH]cc(-c2cc([C@H]3C[C@@H]3c3cnc4cnn(CC(F)(F)F)c4c3)c3ncc(F)n3n2)c(=O)[nH]1 (racemic) [Example 619]" study_system="CD73 (Homo sapiens (Human))" cat=y
compound=O=c1[nH]cc(-c2cc(N3CC(C4CC4)C3)c3nccn3n2)c(=O)[nH]1 study_system="CD73 (Homo sapiens (Human))" cat=n
compound="O=c1[nH]cc(-c2cc([C@H]3C[C@@H]3c3ncc(C(F)(F)F)cc3F)c3nccn3n2)c(=O)[nH]1 [Example 635]" study_system="CD73 (Homo sapiens (Human))" cat=y
compound=O=c1[nH]cc(-c2cc(N3CC[C@@H](C(F)F)C3)c3nccn3n2)c(=O)[nH]1 study_system="CD73 (Homo sapiens (Human))" cat=n
compound=O=c1[nH]cc(-c2cc([C@H]3C[C@@H]3c3ccc4cnn(CC(F)(F)F)c4c3)c3nccn3n2)c(=O)[nH]1 study_system="CD73 (Homo sapiens (Human))" cat=y
compound="O=c1[nH]cc(-c2cc([C@H]3C[C@@H]3c3cc4c(cn3)c(C(F)(F)F)nn4CC(F)(F)F)c3nccn3n2)c(=O)[nH]1 [Example 637]" study_system="CD73 (Homo sapiens (Human))" cat=y
